Catalogue of sequences with associated total protein half-life in vivo
assay: total protein half-life in vivo (active degradation + dilution); higher = more stable protein; details: E. coli NCM3722 delta-lon; growth: N-lim chemostat; doubling time 6 h

- MACROMOLECULE SEQUENCE: "MSNWPYPRIVAHRGGGKLAPENTLASIDVGAKYGHKMIEFDAKLSKDGEIFLLHDDNLERTSNGWGVAGELNWQDLLRVDAGSWYSKMFKGEPLPLLSQVAERCREHGMMANIEIKPTTGTGPLTGKMVALAARELWAGMTPPLLSSFEIDALEAAQQAAPELPRGLLLDEWRDDWRELTARLGCVSIHLNHKLLNKARVMQLKDAGLRILVYTVNKPQRAAELLRWGVDCICTDAIDVIGPNFTAQ"
  total protein half-life in vivo (h): 4.1
- MACROMOLECULE SEQUENCE: "MKTETPSVKIVAITADEAGQRIDNFLRTQLKGVPKSMIYRILRKGEVRVNKKRIKPEYKLEAGDEVRIPPVRVAEREEEAVSPHLQKVAALADVILYEDDHILVLNKPSGTAVHGGSGLSFGVIEGLRALRPEARFLELVHRLDRDTSGVLLVAKKRSALRSLHEQLREKGMQKDYLALVRGQWQSHVKSVQAPLLKNILQSGERIVRVSQEGKPSETRFKVEERYAFATLVRCSPVTGRTHQIRVHTQYAGHPIAFDDRYGDREFDRQLTEAGTGLNRLFLHAAALKFTHPGTGEVMRIEAPMDEGLKRCLQKLRNAR [P0AA39]"
  total protein half-life in vivo (h): 5.68
- MACROMOLECULE SEQUENCE: "MENNEIQSVLMNALSLQEVHVSGDGSHFQVIAVGELFDGMSRVKKQQTVYGPLMEYIADNRIHAVSIKAYTPAEWARDRKLNGF [P0A9W6]"
  total protein half-life in vivo (h): 5.87
- MACROMOLECULE SEQUENCE: "MAQRVQLTATVSENQLGQRLDQALAEMFPDYSRSRIKEWILDQRVLVNGKVCDKPKEKVLGGEQVAINAEIEEEARFEPQDIPLDIVYEDEDIIIINKPRDLVVHPGAGNPDGTVLNALLHYYPPIADVPRAGIVHRLDKDTTGLMVVAKTVPAQTRLVESLQRREITREYEAVAIGHMTAGGTVDEPISRHPTKRTHMAVHPMGKPAVTHYRIMEHFRVHTRLRLRLETGRTHQIRVHMAHITHPLVGDPVYGGRPRPPKGASEAFISTLRKFDRQALHATMLRLYHPISGIEMEWHAPIPQDMVELIEVMRADFEEHKDEVDWL"
  total protein half-life in vivo (h): 5.51
- MACROMOLECULE SEQUENCE: "MDKIHAMQLFIKVAELESFSRAADFFALPKGSVSRQIQALEHQLGTQLLQRTTRRVKLTPEGMTYYQRAKDVLSNLSELDGLFQQDATSISGKLRIDIPPGIAKSLLLPRLSEFLYLHPGIELELSSHDRPVDILHDGFDCVIRTGALPEDGVIARPLGKLTMVNCASPHYLTRFGYPQSPDDLTSHAIVRYTPHLGVHPLGFEVASVNGVQWFKSGGMLTVNSSENYLTAGLAGLGIIQIPRIAVREALRAGRLIEVLPGYRAEPLSLSLVYPQRRELSRRVNLFMQWLAGVMKEYLD"
  total protein half-life in vivo (h): 3.35
- MACROMOLECULE SEQUENCE: "MTNPQFAGHPFGTTVTAETLRNTFAPLTQWEDKYRQLIMLGKQLPALPDELKAQAKEIAGCENRVWLGYTVAENGKMHFFGDSEGRIVRGLLAVLLTAVEGKTAAELQAQSPLALFDELGLRAQLSASRSQGLNALSEAIIAATKQV [P0AGF2]"
  total protein half-life in vivo (h): 5.38
